# Tested on: Neutrophil
# Test Name: Antiinflammatory activity against LPS-stimulated human neutrophils assessed as reduction in TNFalpha production incubated for 1 hr followed by LPS stimulation measured after 18 to 24 hrs by ELISA
# Assay type: functional, cell-based
pIC50: −log10 of the molar value.
Measure: pIC50

[
  {
    "Substance Smiles": "COc1c(O)cc2oc(-c3ccc(O)cc3)c(O[C@@H]3O[C@H](CO)[C@H](O)[C@H](O)[C@H]3O)c(=O)c2c1O",
    "Measured Result": 4.93
  },
  {
    "Substance Smiles": "COc1c(O)cc2oc(-c3ccc(O)c(O)c3)c(O[C@@H]3O[C@H](CO)[C@H](O)[C@H](O)[C@H]3O[C@@H]3OC[C@](O)(CO[C@@H]4OC[C@H](O)[C@H](O)[C@H]4O)[C@H]3O)c(=O)c2c1O",
    "Measured Result": 5.01
  },
  {
    "Substance Smiles": "COc1cc(/C=C/C(=O)OC[C@H]2O[C@@H](Oc3cc4oc(-c5ccc(O)c(O)c5)c(O[C@@H]5O[C@H](CO)[C@H](O)[C@H](O)[C@H]5O)c(=O)c4c(O)c3OC)[C@H](O)[C@@H](O)[C@@H]2O)ccc1O",
    "Measured Result": 4.63
  },
  {
    "Substance Smiles": "COc1cc(-c2oc3cc(O[C@@H]4O[C@H](CO)[C@@H](O)[C@H](O)[C@H]4O)c(OC)c(O)c3c(=O)c2O[C@@H]2O[C@H](CO)[C@H](O)[C@H](O)[C@H]2O)ccc1O",
    "Measured Result": 4.79
  }
]

---

# Test system: Neutrophil
# Test Name: Cytotoxicity against LPS-stimulated human neutrophils assessed as reduction in cell viability up to 50 uM incubated for 1 hr followed by LPS stimulation by propidium iodide staining based method

[
  {
    "Substance Smiles": "COc1cc(/C=C/C(=O)OC[C@H]2O[C@@H](Oc3cc4oc(-c5ccc(O)c(OC)c5)c(O[C@@H]5O[C@H](CO)[C@H](O)[C@H](O)[C@H]5O)c(=O)c4c(O)c3OC)[C@H](O)[C@@H](O)[C@@H]2O)ccc1O",
    "Test Target": "Neutrophil",
    "Activity": "Non-Toxic"
  },
  {
    "Substance Smiles": "COc1c(O[C@@H]2O[C@H](CO)[C@@H](O)[C@H](O)[C@H]2O)cc2oc(-c3ccc(O)c(O)c3)c(O[C@@H]3O[C@H](CO)[C@H](O)[C@H](O)[C@H]3O)c(=O)c2c1O",
    "Test Target": "Neutrophil",
    "Activity": "Non-Toxic"
  },
  {
    "Substance Smiles": "COc1cc(/C=C/C(=O)OC[C@H]2O[C@@H](Oc3cc4oc(-c5ccc(O)c(O)c5)c(O[C@@H]5O[C@H](CO)[C@H](O)[C@H](O)[C@H]5O)c(=O)c4c(O)c3OC)[C@H](O)[C@@H](O)[C@@H]2O)ccc1O",
    "Test Target": "Neutrophil",
    "Activity": "Non-Toxic"
  },
  {
    "Substance Smiles": "COc1cc(-c2oc3cc(O)c(OC)c(O)c3c(=O)c2O[C@@H]2O[C@H](CO)[C@H](O)[C@H](O)[C@H]2O)ccc1O",
    "Test Target": "Neutrophil",
    "Activity": "Non-Toxic"
  },
  {
    "Substance Smiles": "COc1c(O)cc2oc(-c3ccc(O)c(O)c3)c(O[C@@H]3O[C@H](CO[C@@H]4OC[C@H](O)[C@H](O)[C@H]4O)[C@H](O)[C@H](O)[C@H]3O)c(=O)c2c1O",
    "Test Target": "Neutrophil",
    "Activity": "Non-Toxic"
  },
  {
    "Substance Smiles": "COc1cc(-c2oc3cc(O[C@@H]4O[C@H](CO)[C@@H](O)[C@H](O)[C@H]4O)c(OC)c(O)c3c(=O)c2O[C@@H]2O[C@H](CO)[C@H](O)[C@H](O)[C@H]2O)ccc1O",
    "Test Target": "Neutrophil",
    "Activity": "Non-Toxic"
  },
  {
    "Substance Smiles": "COc1c(O)cc2oc(-c3ccc(O)c(O)c3)c(O[C@@H]3O[C@H](CO)[C@H](O)[C@H](O)[C@H]3O[C@@H]3OC[C@](O)(CO)[C@H]3O)c(=O)c2c1O",
    "Test Target": "Neutrophil",
    "Activity": "Non-Toxic"
  },
  {
    "Substance Smiles": "COc1c(O)cc2oc(-c3ccc(O)c(O)c3)c(O[C@@H]3O[C@H](CO)[C@H](O)[C@H](O)[C@H]3O[C@@H]3OC[C@](O)(CO[C@@H]4OC[C@H](O)[C@H](O)[C@H]4O)[C@H]3O)c(=O)c2c1O",
    "Test Target": "Neutrophil",
    "Activity": "Non-Toxic"
  },
  {
    "Substance Smiles": "COc1c(O)cc2oc(-c3ccc(O)c(O)c3)c(O[C@@H]3O[C@H](CO[C@@H]4O[C@H](CO)[C@@H](O)[C@H](O)[C@H]4O)[C@H](O)[C@H](O)[C@H]3O)c(=O)c2c1O",
    "Test Target": "Neutrophil",
    "Activity": "Non-Toxic"
  }
]
